Below: a set of entries, each annotated with reported composite z-score.
Biological target: Dihydroorotate dehydrogenase (quinone), mitochondrial (Plasmodium falciparum (isolate 3D7)) (UniProt Q08210)
Sequence (Q08210 whole entry, looked up): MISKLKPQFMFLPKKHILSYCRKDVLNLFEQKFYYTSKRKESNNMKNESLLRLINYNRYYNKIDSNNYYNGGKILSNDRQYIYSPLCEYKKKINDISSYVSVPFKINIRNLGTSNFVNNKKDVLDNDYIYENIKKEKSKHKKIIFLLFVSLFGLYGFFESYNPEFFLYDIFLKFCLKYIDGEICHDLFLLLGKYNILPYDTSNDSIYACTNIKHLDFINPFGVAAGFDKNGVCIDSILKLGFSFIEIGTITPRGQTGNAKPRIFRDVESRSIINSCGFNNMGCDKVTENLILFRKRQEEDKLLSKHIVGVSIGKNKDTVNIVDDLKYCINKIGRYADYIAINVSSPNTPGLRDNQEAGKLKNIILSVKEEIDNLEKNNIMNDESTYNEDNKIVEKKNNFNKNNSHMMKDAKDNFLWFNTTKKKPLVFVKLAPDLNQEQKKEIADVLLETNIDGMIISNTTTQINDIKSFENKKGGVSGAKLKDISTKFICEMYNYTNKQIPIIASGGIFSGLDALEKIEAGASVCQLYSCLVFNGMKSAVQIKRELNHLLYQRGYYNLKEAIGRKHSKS
Test: PfDHODH enzyme inhibitors, primary screen, biochemical, C-terminal His tag, absorbance 600 nm (AID 1175);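 also: recombinant parasite enzyme with a five histidine tag at its C terminus; test concentration not given here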
Settings: DCIP absorbance 600 nm, higher = more signal, called active from +8 up or from −8 down
Calls of active or inactive are those of the source.

Field: example entries. Status: answers known.
COC(=O)CC=C[C@@H](C)[C@@H](C=NO[C@@H]1O[C@H](COC(C)=O)[C@@H](OC(C)=O)[C@H](OC(C)=O)[C@H]1OC(C)=O)NS(=O)(=O)c1ccc(C)cc1 ... -0.069 (inactive)
CC(CCN1CCCCc2nc(C)c(C)cc21)=NOC[C@@H](O)COCc1ccco1 ... -0.441 (inactive)

Recorded composite z-score for "O=C1[C@H]2[C@H]3[C@H](O)[C@H](O)CC(=NOC[C@@H](O)COCc4ccco4)[C@@H]3CC[C@H]2C(=O)N1C[C@@H]1CCCO1" , please?
0.121 (inactive)

Queued: O=C1CCCC=C1C(O)CCOC(c1ccccc1)(c1ccccc1)c1ccccc1 (stereo not drawn)
0.466 (inactive)

Next up: "COc1ccc(O[C@H]2C=C[C@@H](c3ccccc3)O[C@@H]2CON=C(C)CCN2CCc3nc(-c4ccccc4)c(-c4ccccc4)cc3C2)cc1"
0.503 (inactive)

Consider next the compound "C[C@@H](c1ccccc1)N1C(=O)[C@H]2[C@H]3[C@H](O)[C@H](O)CC(=O)[C@H]3CC[C@H]2C1=O" in the same way.
-0.736 (inactive)

What do you have for "CO[C@H]1COC(=O)[C@@H](C)COC(=O)[C@@H](OCc2ccccc2)C=C[C@@H]1C" ?
0.976 (inactive)

# iterate: "COC(=O)CC=C[C@@H](C)[C@@H](C=NO[C@@H]1O[C@H](COC(C)=O)[C@@H](OC(C)=O)[C@H](OC(C)=O)[C@H]1OC(C)=O)OC"
0.159 (inactive)

Now consider COC(=O)[C@H](C)NC(=O)CCC1CC(OC(=O)NCc2ccc3c(c2)OCO3)CC2(CCCC(COC(=O)NCC3CCCCC3)O2)O1 (stereo partly drawn) and answer again.
0.981 (inactive)

Please answer likewise for "COC(=O)[C@@H]1CC[C@H](C)[C@@H](c2ccc(C)cc2)N1C(=O)c1ccc(C=NO[C@@H]2O[C@H](COC(C)=O)[C@@H](OC(C)=O)[C@H](OC(C)=O)[C@H]2OC(C)=O)cc1"
-2.7 (inactive)

Try this compound too: "C[C@H]1CC[C@H]2C(=O)O[C@H](COc3ccc(C(C)(C)C)cc3)CN2[C@@H]1c1ccc(Br)cc1"
0.159 (inactive)

What do you have for COCCNC(=O)OCC1CCCC2(CC(OC(=O)NCc3ccc4c(c3)OCO4)CC(CCC(=O)N[C@@H](C)C(=O)OC)O2)O1 (stereo partly drawn) ?
0.209 (inactive)

Input "CC(C)=NOC[C@@H](C)[C@H](OCc1ccccc1)C(C)C"
0.444 (inactive)
